Target: Cys12 of the KRAS 4B G12C protein (Homo sapiens, UniProt P01116, G12C)
Construct: This protein contained 188 amino acids in total, including an N-terminal 6-Histidine tag; made in house; host or cells: E. coli BL21
Test: In vitro covalent adduct formation (CAF) assay, LC-MS intact mass
Type: binding
Conditions: 10 uM compound, 60 min
Quick reference: % CAF 10 uM @ 60 min of the listed items.

compound	target desc	% CAF 10 uM @ 60 min
C=CC(=O)N1C[C@H](C)N(c2nc(=O)n3c4c(c(-c5cc(Cl)c(F)cc5F)c(C(F)(F)F)cc24)SC[C@@H]3CN2C[C@@H]3C[C@H]2CO3)C[C@H]1C [Example 1304]	Cys12 of the KRAS 4B G12C protein (Homo sapiens, UniProt P01116, G12C)	87%
[2H]C([2H])=C([2H])C(=O)N1[C@H](C)CN(c2nc(=O)n3c4c(c(-c5ccc(F)cc5F)c(C(F)(F)F)cc24)SC[C@@H]3COC)C[C@@H]1C (atropisomer, axis not shown) [Example 1404]	Cys12 of the KRAS 4B G12C protein (Homo sapiens, UniProt P01116, G12C)	80.9%
C=CC(=O)N1[C@H](C)CN(c2nc(=O)n3c4c(c(-c5ccc(F)cc5)c(C(F)(F)F)cc24)SC[C@@H]3CN2C[C@@H]3C[C@H]2CO3)C[C@@H]1C	Cys12 of the KRAS 4B G12C protein (Homo sapiens, UniProt P01116, G12C)	96.1%
[2H]C([2H])=C([2H])C(=O)N1[C@H](C)CN(c2nc(=O)n3c4c(c(-c5ccc(F)cc5F)c(C(F)(F)F)cc24)SC[C@@H]3COC)C[C@@H]1C (atropisomer, axis not shown) [Example 1405]	Cys12 of the KRAS 4B G12C protein (Homo sapiens, UniProt P01116, G12C)	88.6%
C=CC(=O)N1[C@H](C)CN(c2nc(=O)n3c4c(c(-c5ccc(F)cc5)c(C(F)(F)F)cc24)SCC(CO)(CO)C3)C[C@@H]1C	Cys12 of the KRAS 4B G12C protein (Homo sapiens, UniProt P01116, G12C)	93%

###

Target: K-Ras G12C (Homo sapiens, UniProt P01116, G12C)
Construct: This protein contained 188 amino acids in total, including an N-terminal 6-Histidine tag; made in house; host or cells: E. coli BL21
Assay: CAF assay (% CAF; method in Example 7, not in this part)
Type: binding
Details: 10 uM compound, 1 h incubation
Friendly reminder: % CAF @ 10 uM, 1h below 70% is TRUE, at or above is FALSE.

molecule	category
C=C(F)C(=O)N1C2CC(=O)CC1CN(c1nc(=O)n3c4c(c(-c5ccc(F)cc5F)c(C(F)(F)F)cc14)SCCC3)C2	TRUE
C=CC(=O)N1C[C@H](C)N(c2nc(=O)n3c4c(c(-c5cc(Cl)c(F)cc5F)c(Cl)cc24)SC[C@@H]3CN2CCC3(CC2)COC3)C[C@H]1C	TRUE
C=CC(=O)N1C[C@H](C)N(c2nc(=O)n3c4c(c(-c5ccc(F)cc5)c(Cl)cc24)SC[C@@H]3CN2CCN(CC(F)F)CC2)C[C@H]1C	TRUE
C=CC(=O)N1CCN(c2nc(=O)n3c4c(c(-c5cc(Cl)c(F)cc5F)c(C(F)(F)F)cc24)SC[C@@H]3COCOC)[C@@H](C)C1 (atropisomer, axis not shown) [Example 552]	TRUE
C=CC(=O)N1C[C@H](C)N(c2nc(=O)n3c4c(c(-c5cc(Cl)c(F)cc5F)c(C(F)(F)F)cc24)SC[C@@H]3CN2CCN(CC(F)F)CC2)C[C@H]1C [Example 521]	TRUE
C=CC(=O)N1[C@H](C)CN(c2nc(=O)n3c4c(c(-c5cc(Cl)c(F)cc5F)c(C(F)(F)F)cc24)SC[C@@H](OC)C3)C[C@@H]1C	FALSE
C=CC(=O)N1CCN(c2nc(=O)n3c4c(c(-c5ccc(F)cc5F)c(C(F)(F)F)cc24)SC[C@@H]3COCOC)[C@@H](C)C1 (atropisomer, axis not shown) [Example 548]	FALSE
C=CC(=O)N1CCN(c2nc(=O)n3c4c(c(-c5ccc(F)cc5)c(Cl)cc24)SC[C@H](OC)C3)[C@@H](C)C1	FALSE
C=CC(=O)N1[C@H](C)CN(c2nc(=O)n3c4c(c(-c5cc(Cl)c(F)cc5F)c(C(F)(F)F)cc24)SC[C@@H]3CN(C)C)C[C@@H]1C	TRUE
C=CC(=O)N1C[C@H](C)N(c2nc(=O)n3c4c(c(-c5cc(Cl)c(F)cc5F)c(C(F)(F)F)cc24)SC[C@@H]3COC)C[C@H]1C [Example 492]	TRUE
C=CC(=O)N1C[C@H](C)N(c2nc(=O)n3c4c(c(-c5cc(Cl)c(F)cc5F)c(C(F)(F)F)cc24)SC[C@@H]3CN2CCN(CC(F)F)CC2)C[C@H]1C (atropisomer, axis not shown) [Example 557]	TRUE
C=CC(=O)N1CCN(c2nc(=O)n3c4c(c(-c5c(F)cc(F)cc5F)c(C(F)(F)F)cc24)SCCC3)[C@@H](C)C1	TRUE
[2H]C1([2H])N(C(=O)C=C)C([2H])([2H])C([2H])([2H])N(c2nc(=O)n3c4c(c(-c5ccc(F)cc5F)c(C(F)(F)F)cc24)SCC2(COC2)C3)C1([2H])[2H]	FALSE
C=CC(=O)N1C[C@H](C)N(c2nc(=O)n3c4c(c(-c5ccc(F)cc5F)c(C(F)(F)F)cc24)SC[C@@H]3CN2CCN(C3CC3)CC2)C[C@H]1C (single isomer, unassigned) [Example 581]	FALSE
O=C1CC2CN(c3nc(=O)n4c5c(c(-c6ccc(F)cc6F)c(C(F)(F)F)cc35)SCC4)CC(C1)N2C(=O)/C=C/C(F)(F)F	FALSE
C=CC(=O)N1CCN(c2nc(=O)n3c4c(c(-c5cc(Cl)c(F)cc5F)c(C(F)(F)F)cc24)SC[C@H](OC)C3)CC1	FALSE
C=CC(=O)N1CCN(c2nc(=O)n3c4c(c(-c5ccc(F)cc5)c(C(F)(F)F)cc24)SC[C@@H]3CC2CCN(C3COC3)CC2)[C@@H](C)C1	FALSE
C=CC(=O)N1CCN(c2nc(=O)n3c4c(c(-c5ccc(F)cc5)c(Cl)cc24)SC[C@@H]3CN2CCN(CC)CC2)[C@@H](C)C1	FALSE
O=C1CC2CN(c3nc(=O)n4c5c(c(-c6ccc(F)cc6F)c(C(F)(F)F)cc35)SCC4)CC(C1)N2C(=O)/C=C/C(F)F	FALSE
C=CC(=O)N1CCN(c2nc(=O)n3c4c(c(-c5ccc(F)c6cccnc56)c(Cl)cc24)SC[C@@H]3COC)[C@@H](C)C1	FALSE
C=CC(=O)N1C[C@H](C)N(c2nc(=O)n3c4c(c(-c5ccc(F)cc5)c(Cl)cc24)SC[C@@H]3CN2CCN(C3CC3)CC2)C[C@H]1C	TRUE
C/C=C/C(=O)N1C2CC(=O)CC1CN(c1nc(=O)n3c4c(c(-c5ccc(F)cc5F)c(C(F)(F)F)cc14)SCC3)C2	TRUE
C=CC(=O)N1CCN(c2nc(=O)n3c4c(c(-c5cc(Cl)c(F)cc5F)c(Cl)cc24)SC[C@@H]3CN2CCC3(CC2)COC3)[C@@H](C)C1 (atropisomer, axis not shown) [Example 483]	TRUE

###

Target: Cys12 of the KRAS 4B G12C protein (Homo sapiens, UniProt P01116, G12C)
Construct: This protein contained 188 amino acids in total, including an N-terminal 6-Histidine tag; made in house; host or cells: E. coli BL21
Assay: In vitro covalent adduct formation (CAF) assay, LC-MS intact mass
Format: binding
Details: 10 uM compound, 60 min

compound	measurement units	% CAF 10 uM @ 60 min
C=CC(=O)N1C[C@H](C)N(c2nc(=O)n3c4c(c(-c5cc(C(OC)OC)c(F)cc5F)c(C(F)(F)F)cc24)SCC2(COC2)C3)C[C@H]1C	%	76
C=CC(=O)N1CCN(c2nc(=O)n3c4c(c(-c5ccc(F)cc5)c(C(F)(F)F)cc24)SC[C@@H]3CN2CCN(CC)CC2)CC1	%	78.9
C=CC(=O)N1[C@H](C)CN(c2nc(=O)n3c4c(c(-c5ccc(F)cc5)c(C(F)(F)F)cc24)SC[C@@H]3C)C[C@@H]1C	%	95.7
C=CC(=O)N1CCN(c2nc(=O)n3c4c(c(-c5ccc(F)c(Cl)c5)c(C(F)(F)F)cc24)SC[C@@H]3COCOC)CC1	%	96.2
C=CC(=O)N1[C@H](C)CN(c2nc(=O)n3c4c(c(-c5ccc(F)c6cnn(C)c56)c(C(F)(F)F)cc24)SC[C@@H]3COC)C[C@@H]1C (atropisomer, axis not shown) [Example 1366a]	%	46.8
C=CC(=O)N1C[C@H](C)N(c2nc(=O)n3c4c(c(-c5cccc6cnn(C)c56)c(C(F)(F)F)cc24)SC[C@@H]3CN2CCN(CC)CC2)C[C@H]1C (atropisomer, axis not shown) [Example 1382]	%	49.1
C=CC(=O)N1[C@H](C)CN(c2nc(=O)n3c4c(c(-c5ccc(F)cc5F)c(C(F)(F)F)cc24)SCC(CO)(CO)C3)C[C@@H]1C	%	93
[2H]C([2H])=C([2H])C(=O)N1C[C@H](C)N(c2nc(=O)n3c4c(c(-c5cc(Cl)c(F)cc5F)c(C(F)(F)F)cc24)SCC2(COC2)C3)C[C@H]1C (atropisomer, axis not shown) [Example 1433]	%	70
C=CC(=O)N1CCN(c2nc(=O)n3c4c(c(-c5ccc(F)cc5F)c(C(F)(F)F)cc24)SC[C@@H]3CN2C[C@@H]3C[C@H]2CO3)CC1 (atropisomer, axis not shown) [Example 1305]	%	97.2
C=CC(=O)N1[C@H](C)CN(c2nc(=O)n3c4c(c(-c5ccc(F)c(Cl)c5)c(C(F)(F)F)cc24)SC[C@@H]3COC)C[C@@H]1C	%	96
C=CC(=O)N1CCN(c2nc(=O)n3c4c(c(-c5cc(Cl)c(F)cc5F)c(C(F)(F)F)cc24)SC[C@@H]3CN2CCN(C3CC3)CC2)CC1 (atropisomer, axis not shown) [Example 1356]	%	92.8
